# Target: 3-hydroxyacyl-CoA dehydrogenase type-2 (Homo sapiens)
# Measurement Notes: qHTS Assay for Inhibitors of HADH2 (Hydroxyacyl-Coenzyme A Dehydrogenase, Type II); further: nearly all actives have a fitted effect of over 60% in size; further: potency means the concentration at half of the fitted maximal effect
# Conditions: recombinant HADH2, NADH fluorescence, beta-hydroxybutyryl-CoA; series mostly up to 57.1 µM
About 2,500 (3.4%) of roughly 73,000 compounds were called active. Roughly 7% stayed inconclusive and do not appear here. Shown is part of a subset that was picked to be rich in actives.
Quantity Kind: Potency

For orientation, consider the following solved cases.
>  <Compound>
c1ccc(CN2CC[C@@]3(CCCNC3)C2)cc1

>  <Potency>
inactive

$$$$
>  <Compound>
CCCCN1C2CCC1CC(OC(c1ccc(F)cc1)c1ccc(F)cc1)C2 (stereo not given)

>  <Potency>
inactive

$$$$
>  <Compound>
Clc1ccccc1

>  <Potency>
inactive

$$$$
>  <Compound>
Cc1cc(-c2ccc(N)c(C)c2)ccc1N

>  <Potency>
inactive

$$$$

Could you tell me Potency for each of these compounds? They are listed below.
1. COC(=O)N(c1ccc(OC)cc1)P1(=S)OCCC(C)O1 (stereo not given)
2. C[C@@]12CC[C@H]3[C@@H](CC[C@]4(O)C[C@H](O)CC[C@@]34C=O)[C@]1(O)CC[C@@H]2C1=CC(=O)OC1
3. O=C1C2(Cl)C3(Cl)C4(Cl)C(Cl)(Cl)C5(Cl)C3(Cl)C1(Cl)C5(Cl)C24Cl (stereo not given)
4. Cc1cccc([C@H](C)c2cnc[nH]2)c1C
5. C/C(=C\C=C/[C@@H](C)C(=O)O)[C@H]1CN[C@H](C(=O)O)[C@@H]1CC(=O)O

1. 1 µM (active)
2. inactive
3. inactive
4. inactive
5. inactive

Report Potency for every entry below.
1. CC(C)(O/N=C(\C(=O)N[C@@H]1C(=O)N2C(C(=O)[O-])=C(C[n+]3ccccc3)CS[C@@H]12)c1csc(N)n1)C(=O)O
2. ClCCBr

7.94 µM (active)
inactive

###

# Target: 3-hydroxyacyl-CoA dehydrogenase type-2 (Homo sapiens) (UniProt Q99714)
# Sequence (Q99714 whole entry, looked up): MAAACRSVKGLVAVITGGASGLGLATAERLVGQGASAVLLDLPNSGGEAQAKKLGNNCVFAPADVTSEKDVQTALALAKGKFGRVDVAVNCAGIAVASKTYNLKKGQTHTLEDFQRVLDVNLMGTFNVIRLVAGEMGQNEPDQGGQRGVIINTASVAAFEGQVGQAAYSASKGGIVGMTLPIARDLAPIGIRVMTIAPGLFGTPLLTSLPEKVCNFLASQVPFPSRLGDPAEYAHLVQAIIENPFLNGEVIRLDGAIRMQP
# Sequence (Q99714 whole entry, looked up): as above
# Measurement Notes: qHTS Assay for Inhibitors of HADH2 (Hydroxyacyl-Coenzyme A Dehydrogenase, Type II); further: nearly all actives have a fitted effect of over 60% in size
# Conditions: recombinant HADH2, NADH fluorescence, beta-hydroxybutyryl-CoA; series mostly up to 57.1 µM
The campaign covered roughly 73,000 compounds. About 2,500 (3.4%) were called active. Roughly 7% stayed inconclusive and do not appear here. Calls come from the whole dose curve; as a rule, active = well fitted inhibition curve with a large enough effect; inconclusive = small, poorly fitted or top-dose-only effect; inactive = no such curve, though single readings can be large or run the other way. The sample as a whole holds a higher share of actives than the screen did.
Allowed answers: yes (1) for active, no (0) for inactive

>  <Chem Smiles>
Nc1ccc([N+](=O)[O-])cc1

>  <Assigned Class>
no (0)

$$$$
>  <Chem Smiles>
Clc1ccc([C@@H]2C[C@H]3CC[C@@H]2N3)cn1

>  <Assigned Class>
no (0)

$$$$
>  <Chem Smiles>
CC(Cl)Cl

>  <Assigned Class>
no (0)

$$$$

Short answer needed: outcome of this test for CCOC(=O)c1c(-c2ccccc2)oc2ccc(OC(=O)N(C)C)cc12 ?
yes (1)
